Test system: P. falciparum stage V gametocytes
Design: BacTiter-Glo ATP luminescence viability of purified stage V gametocytes in 384-well plates, per cent inhibition versus DMSO
measurement.parameters: 48 h, 5 µM; inhibitor
In all, about 13,000 compounds went through this assay and about 3,200 (25%) showed an effect of 50% or more. Some of the results follow.
Recorded % Inhibition for the following compounds

The cases that follow already have their % Inhibition on record.
[[record]]
compound = "O=C(NC1CCC(N2CCN(c3cccc4[nH]ccc34)CC2)CC1)c1cc2cccnc2[nH]1 (centres unmarked)"
attribute_measured = "% Inhibition"
assay_value = "-40.15%"

[[record]]
compound = "Cc1ccc(C)c(S(=O)(=O)NCC2CCN(Cc3ccc(O)cc3)CC2)c1"
attribute_measured = "% Inhibition"
assay_value = "45.59%"

[[record]]
compound = "O=C(Nc1ccc(Br)cc1)N(CCN1CCOCC1)CC(O)COCc1ccc(F)cc1 (centres unmarked)"
attribute_measured = "% Inhibition"
assay_value = "29.66%"


# input for lookup
For COc1ccccc1C1CCN(C2CCC(NC(=O)/C=C/c3ccc(C(F)(F)F)cc3)CC2)CC1 (centres unmarked) , what is its reported % Inhibition?
28.53%
